assay: yeast display, Sf9 membrane polyspecificity reagent, FACS + sequencing; frameworks hold sequencing errors
observable: polyreactivity (PSR sort gate)

{"item.sequence": "QVQLVESGGGLVQAGGSLRLSCAASGSIFGFNAMGWYRQAPGKERELVAGITSGDRTNYADSVKGRFTISRDNAKNTVYLQMNSLKPEDTAVYYCAARKYVFFKMYYWGQGTQVTVSS", "polyreactivity (PSR sort gate)": "low polyreactivity"}
{"item.sequence": "QVQLVESGGGLVQAGGSLRLSCAASGSTFTYYSMGWDRQAPGKERELVAAISSNGGSTSYADSVKGRFTISRDNAKNTVYLQMNSLKPEDTAVYYCAAQVPLFGRYYWGQGTQVTVSS", "polyreactivity (PSR sort gate)": "high polyreactivity"}
{"item.sequence": "QVQLVDSGVGLVQAGGRLRLSCAASGRIFPFNAMGWYRQSPGKERELVAAITSSGGRTYYADSVKGRFTISRDNAKNTVYLQMNSLKPVDTAVYYCAATLVRRARSGPMGYWGQGTQVTVSS", "polyreactivity (PSR sort gate)": "high polyreactivity"}
{"item.sequence": "QVQLVESGGGLVQAGGSLRLSCAASGSIIVRYAMGWYRQAPGKERALVATITFRDTSTYYADSVKGRFTITRDNAKNTVYLQMNSLKPEDTAVYYCAAVRADLWDIARYDYWGQGTQVTVSS", "polyreactivity (PSR sort gate)": "low polyreactivity"}
{"item.sequence": "QVQLVESGGGLVQARGSLRLSCAASGRIFRKYDMGWYRQAPGKERELVAAISGTGITYYADSVKGRFTISRDNAKNTVYLQMNSMKPEDTAVYYCARGSKPRAWSWAYPSDTSIYDYWGQGTQVTVSS", "polyreactivity (PSR sort gate)": "low polyreactivity"}
{"item.sequence": "QVQLVESGGGLVQAGGSLRLSCAASGIIIDYYTMGWYRQAPGKERELVAAINKSGGSTYADSVKGRFTISRDNAKNTVYLQMNSLKPEDNAVYYCAAEVDYSYWPEYARKYYYWGQGTQVTVSS", "polyreactivity (PSR sort gate)": "low polyreactivity"}
{"item.sequence": "QVQLVESGGGLVQAGGSLRLSCAASGSTLAYNAMGWYRQAPGKERELVAAISSNGDSTYYADSVKGRFTISRDNAKNTVYLQMNSLKPEDTAVYYCAAGYYSRYYEAFEYYYWGQGTQVTVSS", "polyreactivity (PSR sort gate)": "high polyreactivity"}
{"item.sequence": "QVQLVESGGGLVQAGGSLRLSCAASGSISWWYAMGWYRQAPGKERELVAAISSRGGSTYYADSVKGRFTISRDNAKNTVYLQMNSLKPEDTAVYYCAKYYYVGTSFYQGDYWGQGTQVTVSS", "polyreactivity (PSR sort gate)": "low polyreactivity"}

Just so you know, measured polyreactivity (PSR sort gate) for QVQLVESGGGLVQAGGSLRLSCAASGSTFYSYAMGWYRQAPGKERELVAAITIISGSTYYADSVKGRFTISRDNAKNTVYLQMNSLKPEDTAVYYCAADSYYSFVPLDEYWGQGTQVTVSS came out at high polyreactivity

Just so you know, measured polyreactivity (PSR sort gate) for QVQLVESGGGLVQAGGSLRLSCAASGFIFDFYAMGWYRQAPGKERELVADITGGGSTYYADSVKGRFTISRDNAKNTVYLQMNSLKPEDTAVYYCAASYGVYWYSFWYHVAWYDYWGQGTQVTVSS came out at low polyreactivity

Just so you know, measured polyreactivity (PSR sort gate) for QVQLVESGGGLVQAGGSLRLSCAASGSIFGAYAMGWYRQAPGPESELVATITLRDGSTYYADSVKGRFTISRDNAKNTVYLQLNSLKPEDTAVYYCATYYSAINYGSSTTILYDYWGQGTQVSVSS came out at low polyreactivity

Just so you know, measured polyreactivity (PSR sort gate) for QVQLEESGGGLVQAGGSLRLSCAASGYIFSQYAMGWYRPAPGKERELVASISGSGSSTYYADSVKGRFTISRDNAKNTVYLQMNSLKPADTAVFYCAAEWTWGWYITFDYWGQGTQVTVSS came out at high polyreactivity

Just so you know, measured polyreactivity (PSR sort gate) for QVQLVESGGGLVQAGGSLRLSCAASGFTLYRYAMAWYRQAPGKERELVAAISWSGGSTYYADSVKGRFTISRDNAKNTVYLQMNSLKPEDTAVYYCAATGYVTRSKRYDYWGQGTQVTVSS came out at high polyreactivity

Just so you know, measured polyreactivity (PSR sort gate) for QVQLVESGGGLVQAGGSLRLSCAAARYAMGWYRPAPGKERELVAAISKSGGSTYYADSVKGRFTISRDNAKNTVYLQMNSLIPEDTAVYYCAARGHAGRGEYYYWGQGTQVTVSS came out at high polyreactivity

Just so you know, measured polyreactivity (PSR sort gate) for QVQLVESGGGLVQAGGSIRLSCAASGRIFYPYAMGWYRPAPGKDRELVAAIRRSGVDTYYADSVKGRFTISRDNAKQTVYLQMNSLKPEDTAVYYCAADPYWFFAHYDSWGQGTQVTVSS came out at low polyreactivity

Just so you know, measured polyreactivity (PSR sort gate) for QVQLVESGGGLVQAGGSLRLSCAASGRIFSVYAMGWYRQAPGKEREFVASISWRGGRTYYADSVKGRFTISRDNAKNTVYLQMNSLKPEDTAVYYCAAVSYPAVYGFDYWGQGTQVTVSS came out at high polyreactivity

Just so you know, measured polyreactivity (PSR sort gate) for QVQLVESGGGLVQAGGSLRLSCAASGSIFAYNAMGWYRQAPGKERELVASISTGDSTNYADSVKGRFTISRENAKNTDYLQMNSMKPEDTAVYYCNADSYPYYVYGSNVYWGQGSQVTVSS came out at low polyreactivity

Just so you know, measured polyreactivity (PSR sort gate) for QVQLVESGGGLVQAGGSLRLSCAASGSTSVDYTMGLYRQAPGKERELVAAIDYNGDSTYYADSVKGRFTISRDNAKNTVYLQMNSLKPEDTAVYYCAADYLSFVVVKLYGYWGQGTQVTVSS came out at low polyreactivity

Just so you know, measured polyreactivity (PSR sort gate) for QVQLVESGRGLVQAGGSLRLSCAASGGSIPYYAMGWYRQAPGKERELVAAINYSGGSTYYADSVKGRFTISRDNAKNSVYLQMNSLKPEDTAVDYCAARHRYHRGYGYWGQGTQVTLSS came out at high polyreactivity

Just so you know, measured polyreactivity (PSR sort gate) for QVQLVESGGGLVQAGGSLRLSCAASGSIFLGNAMGWYRQAPGKERELVAAITWSGGSTTYADSVKGRFTISRDNAKNTVYLQMNSLKREDTAVYYCNASIYQRYDYWGQGTQVTVSS came out at low polyreactivity

Just so you know, measured polyreactivity (PSR sort gate) for QVQRVESGGGLVQAGGSLRLSCAASGSILFHYAMGWYRQAPGKEREMVAAISRRGGSTYYADSVKGRFSISRDNAKNTVYLQMNSLKPEDTAVYYCAKYPSAYVDSDVTYDMDYWGQGTQVTVSS came out at low polyreactivity
